Where these numbers come from: paper PMC3169616

Biological target: CtHtrA (Chlamydia trachomatis serovar D, UniProt P18584)
Construct: His-tag; made in house; host or cells: E. coli BL21 (DE3), plasmid pETHtrA
Sequence (P18584 17-497): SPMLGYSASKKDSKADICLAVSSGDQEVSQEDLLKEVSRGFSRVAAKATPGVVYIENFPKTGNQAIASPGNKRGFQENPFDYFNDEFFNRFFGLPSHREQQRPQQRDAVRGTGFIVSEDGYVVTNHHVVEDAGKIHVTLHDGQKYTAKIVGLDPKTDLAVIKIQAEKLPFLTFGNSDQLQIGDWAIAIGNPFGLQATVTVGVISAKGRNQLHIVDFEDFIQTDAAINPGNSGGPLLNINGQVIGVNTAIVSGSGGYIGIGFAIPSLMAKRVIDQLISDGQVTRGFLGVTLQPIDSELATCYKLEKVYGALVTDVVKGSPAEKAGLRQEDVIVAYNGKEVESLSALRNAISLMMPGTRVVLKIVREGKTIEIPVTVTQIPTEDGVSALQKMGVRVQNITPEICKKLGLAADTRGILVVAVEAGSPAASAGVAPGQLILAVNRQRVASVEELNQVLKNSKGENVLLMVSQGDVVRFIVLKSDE
Assay: Protease assay and kinetic analysis with pNA-labelled peptide substrates
Type: biochemical
Conditions: pNA peptide as substrate; absorbance 405 nm, 37°C
No end group written: not given here. *: point of attachment. pNA = O=[N+]([O-])c1ccc(N*)cc1
quantity: Km (µM)
Write the value in µM as a bare number.

Look over these answered cases.
> print(dat)
                                  substance  quantity  quantitative.result
1  PMFKLI-pNA [pNA peptide substrate, 1 residue less]        Km                  314
2  DPMFKLP-pNA [Model E. coli substrate, P at P1]        Km                 3870
3  DPMFKLV-pNA [previously published E. coli DegP substrate [22], reference compound]        Km                  323
4  DPMFKQT-pNA [Model E. coli substrate, change P1 and P2]        Km                 9.38
5  DPMFKLI-pNA [Model E. coli substrate, I at P1]        Km                  527
6  DMPFKLT-pNA [Model E. coli substrate, T at P1]        Km                  940

Challenge: Fill in Km for record DPMFKLL-pNA [Model E. coli substrate, L at P1]
Response given: 883

* * *

Target: CtHtrA (Chlamydia trachomatis serovar D, UniProt P18584)
Construct: His-tag; made in house; host or cells: E. coli BL21 (DE3), plasmid pETHtrA
Assay: Protease assay and kinetic analysis with pNA-labelled peptide substrates
Assay type: biochemical
Settings: pNA peptide as substrate; absorbance 405 nm, 37°C, reading every 10 s for 30 min
Excerpt: A series of peptide substrates were then designed based on the cleavage sites previously identified in ß-casein [3], PICS results, previously published substrates for E. coli DegP [22], and the REPLi library screening results. […] The purified recombinant protein was examined by Coomassie stained polyacrylamide gels and activity was checked using ß-casein cleavage assays prior to use in peptide assays. […] The maximum slope over a minimum of 8 readings was used for the data analysis. […]
No end group written: not given here. *: point of attachment. pNA = O=[N+]([O-])c1ccc(N*)cc1
quantity: Vmax

Look over these answered cases.
> print(dat)
                                  substance                          result
1  DPMFKLV-pNA [previously published E. coli DegP substrate [22], reference compound]   4.678 mM sec^−1, µM CtHtrA^−1
2  DPMFKLI-pNA [Model E. coli substrate, I at P1]  10.340 mM sec^−1, µM CtHtrA^−1
3  DPMFKQT-pNA [Model E. coli substrate, change P1 and P2]  0.3165 mM sec^−1, µM CtHtrA^−1

Challenge: Tell me Vmax of DPMFKLL-pNA [Model E. coli substrate, L at P1] when tested on CtHtrA (Chlamydia trachomatis serovar D, UniProt P18584).
Response given: 3.179 mM sec^−1, µM CtHtrA^−1

Challenge: Tell me Vmax of DPMFKLP-pNA [Model E. coli substrate, P at P1] when tested on CtHtrA (Chlamydia trachomatis serovar D, UniProt P18584).
Response given: 2.917 mM sec^−1, µM CtHtrA^−1

Challenge: Tell me Vmax of PMFKLI-pNA [pNA peptide substrate, 1 residue less] when tested on CtHtrA (Chlamydia trachomatis serovar D, UniProt P18584).
Response given: 9.931 mM sec^−1, µM CtHtrA^−1

Challenge: Tell me Vmax of DMPFKLT-pNA [Model E. coli substrate, T at P1] when tested on CtHtrA (Chlamydia trachomatis serovar D, UniProt P18584).
Response given: 8.955 mM sec^−1, µM CtHtrA^−1
